- Measured On: T1, recombinant human EGFR extracellular domain with 6xHis (human, UniProt P00533 25-645)
- T1 construct: In-house produced; also called 6xHis EGFR ECD; soluble human EGFR ECD; not shown: 6xHis tag
- Run Description: SPR competition, competitor 1284
Experimental Endpoint: % inhibition (%)
Express it in %; write the number only.

Can you look up the measured % inhibition of antibody 1030 (antibody, human IgG1, kappa, V domains shown, Chimeric IgG1 kappa) VH: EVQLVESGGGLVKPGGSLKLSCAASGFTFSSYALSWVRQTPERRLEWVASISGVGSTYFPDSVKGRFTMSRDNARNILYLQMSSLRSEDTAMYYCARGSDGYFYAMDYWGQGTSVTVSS VL: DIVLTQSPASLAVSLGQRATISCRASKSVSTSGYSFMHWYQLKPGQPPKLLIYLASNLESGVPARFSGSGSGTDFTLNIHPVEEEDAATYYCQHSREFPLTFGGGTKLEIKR for me?
32
